target: UniProt P35372; assay: Radioligand Dose-Displacement Binding Assay; details: pH 7.4; 50 °C
Sequence (P35372 whole entry): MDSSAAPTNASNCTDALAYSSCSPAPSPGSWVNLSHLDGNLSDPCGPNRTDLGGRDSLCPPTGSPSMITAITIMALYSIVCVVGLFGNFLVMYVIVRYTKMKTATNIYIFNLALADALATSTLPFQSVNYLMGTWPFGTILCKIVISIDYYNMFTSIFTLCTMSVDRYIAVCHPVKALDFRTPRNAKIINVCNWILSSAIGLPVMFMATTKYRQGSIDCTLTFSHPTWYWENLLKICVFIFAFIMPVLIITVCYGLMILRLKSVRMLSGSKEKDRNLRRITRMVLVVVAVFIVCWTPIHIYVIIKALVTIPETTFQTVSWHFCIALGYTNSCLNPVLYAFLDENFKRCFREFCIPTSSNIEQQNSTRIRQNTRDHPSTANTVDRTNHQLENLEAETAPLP
QUANTITY: Ki (µM)
Answer with a number only, understood to be in µM.

Give Ki for COc1ccc2c(c1)[C@]13CCN(C)[C@H](C2)[C@]1(O)CC[C@@]1(C3)NC(=O)NC1=O 3.88
